- system_name: Cannabinoid receptor 1 (Homo sapiens, UniProt P21554)
- Sequence (P21554 whole entry): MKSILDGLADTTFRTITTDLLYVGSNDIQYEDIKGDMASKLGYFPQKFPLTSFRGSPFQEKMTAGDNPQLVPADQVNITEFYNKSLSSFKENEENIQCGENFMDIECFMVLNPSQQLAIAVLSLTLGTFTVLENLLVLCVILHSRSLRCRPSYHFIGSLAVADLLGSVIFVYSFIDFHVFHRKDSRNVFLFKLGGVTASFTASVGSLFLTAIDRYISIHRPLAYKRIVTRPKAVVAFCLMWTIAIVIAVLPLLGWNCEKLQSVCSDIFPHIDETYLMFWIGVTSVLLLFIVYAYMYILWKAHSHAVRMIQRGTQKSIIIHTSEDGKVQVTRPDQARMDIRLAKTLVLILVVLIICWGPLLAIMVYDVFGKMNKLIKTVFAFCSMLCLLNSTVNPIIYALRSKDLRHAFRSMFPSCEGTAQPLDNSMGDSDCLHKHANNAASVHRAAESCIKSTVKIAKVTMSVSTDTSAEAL
- measurement_protocol: Displacement of [3H]CP-55,940 from human recombinant CB1 receptor expressed in CHO cell membranes after 90 mins by scintillation counting analysis
value_type: log10 of Ki (log10 of the value in nM)
Please note: log10 values; quantity Ki; unit nM.

molecule | reported_measurement
CCCCCn1cc(C(=O)NC2CCCCC2)c(=O)c2c(C)csc21 | 1.93
CCCCCn1cc(C(=O)NC2CCCCC2)c(=O)c2c(C)noc21 | 2.19
CCCCCCn1cc(C(=O)NC2CCCCC2)c(=O)c2c(C)nn(C)c21 | 3.59

Can you give me log10 of Ki for all of these, one by one?
1. CCCCCn1cc(C(=O)NC2CCCCC2)c(=O)c2cnn(C)c21
2. CCCCCn1cc(C(=O)NC23CC4CC(CC(C4)C2)C3)c(=O)c2c(C)noc21
3. CCCCCn1cc(C(=O)NC2CCCCCC2)c(=O)c2c(C)csc21
4. CCCCCn1cc(C(=O)NC23CC4CC(CC(C4)C2)C3)c(=O)c2c(C)csc21
5. CCCCCn1cc(C(=O)NC(C)CCC(C)C)c(=O)c2c(C)nn(C)c21 (stereo not given)

3.71
3.17
1.72
1.14
3.26

====

Please respond with reported Ratio Ki for every item in the list.
- Species: Homo sapiens
- measurement_protocol: Selectivity index, ratio of Ki for human recombinant CB1 receptor to Ki for human recombinant CB2 receptor
Numbers only.

Some molecules with recorded Ratio Ki:
smiles_text | Ratio Ki
CCCCCn1cc(C(=O)NC2CCCCC2)c(=O)c2cnn(C)c21 | 22
CCCCCn1cc(C(=O)NC2CCCCC2)c(=O)c2c(C)csc21 | 7.2
CCCCCn1cc(C(=O)NC23CC4CC(C)(CC(C)(C4)C2)C3)c(=O)c2c(C)nn(C)c21 | 107
CCCCCn1cc(C(=O)NC2CCCCCC2)c(=O)c2c(C)csc21 | 7.5
CCCCCn1cc(C(=O)NCC2CCCCC2)c(=O)c2c(C)nn(C)c21 | 3
CCCCCn1cc(C(=O)N[C@H]2CC[C@H](C)CC2)c(=O)c2c(C)nn(C)c21 | 401
CCCCCn1cc(C(=O)NC23CC4CC(CC(C4)C2)C3)c(=O)c2c(CC)nn(C)c21 | 12
CCCCCn1cc(C(=O)NC23CC4CC(CC(C4)C2)C3)c(=O)c2c(C)c(C)sc21 | 15.9

Next:
Entry CCCCCn1cc(C(=O)NC23CC4CC(CC(C4)C2)C3)c(=O)c2cnn(C)c21 : reported Ratio Ki = ?
432

====

- system_name: Cannabinoid receptor 2 (Homo sapiens, UniProt P34972)
- Sequence (P34972 whole entry): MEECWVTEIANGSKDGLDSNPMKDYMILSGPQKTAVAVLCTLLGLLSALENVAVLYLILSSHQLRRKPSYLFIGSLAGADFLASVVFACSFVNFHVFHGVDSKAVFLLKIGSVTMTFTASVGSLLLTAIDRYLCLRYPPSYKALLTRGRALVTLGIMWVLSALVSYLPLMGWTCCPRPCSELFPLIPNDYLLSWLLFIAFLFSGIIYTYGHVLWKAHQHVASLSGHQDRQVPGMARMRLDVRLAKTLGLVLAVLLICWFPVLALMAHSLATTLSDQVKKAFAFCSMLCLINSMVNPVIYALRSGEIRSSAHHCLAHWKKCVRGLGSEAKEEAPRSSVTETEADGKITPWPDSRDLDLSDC
- measurement_protocol: Displacement of [3H]CP-55,940 from human recombinant CB2 receptor expressed in CHO cell membranes after 60 mins by scintillation counting analysis
Decision: Ki beneath 400 nM gives condition met; Ki meeting or exceeding 400 nM gives condition not met.

# count of solved cases: 6
molecule | system_name | assigned_category
CCCCCn1cc(C(=O)NC23CC4CC(CC(C4)C2)C3)c(=O)c2c(C)noc21 | Cannabinoid receptor 2 (Homo sapiens, UniProt P34972) | condition met
CCCCCn1cc(C(=O)NC2CCCCCC2)c(=O)c2c(C)nn(C)c21 | Cannabinoid receptor 2 (Homo sapiens, UniProt P34972) | condition met
Cc1nn(C)c2c1c(=O)c(C(=O)NC1CCCCC1)cn2CCN1CCOCC1 | Cannabinoid receptor 2 (Homo sapiens, UniProt P34972) | condition not met
CCCCCn1cc(C(=O)NC2CCCCC2)c(=O)c2c(C)csc21 | Cannabinoid receptor 2 (Homo sapiens, UniProt P34972) | condition met
CCCCCn1cc(C(=O)NC2CCCCC2)c(=O)c2c(CC)nn(C)c21 | Cannabinoid receptor 2 (Homo sapiens, UniProt P34972) | condition not met
CCCCCn1cc(C(=O)NC2CCCCC2)c(=O)c2c(-c3ccc(Cl)cc3)nn(C)c21 | Cannabinoid receptor 2 (Homo sapiens, UniProt P34972) | condition not met

Lab note: Ki threshold 400 nM. Does this molecule come in strictly under it? CCCCCn1cc(C(=O)NC2CCCCC2)c(=O)c2cnn(C)c21
condition met

All figures here come from ChEMBL document CHEMBL2311525.
